biological target: α1B (Homo sapiens); assay: competitive radioligand binding, recombinant cells
Sequence (P35368 whole entry): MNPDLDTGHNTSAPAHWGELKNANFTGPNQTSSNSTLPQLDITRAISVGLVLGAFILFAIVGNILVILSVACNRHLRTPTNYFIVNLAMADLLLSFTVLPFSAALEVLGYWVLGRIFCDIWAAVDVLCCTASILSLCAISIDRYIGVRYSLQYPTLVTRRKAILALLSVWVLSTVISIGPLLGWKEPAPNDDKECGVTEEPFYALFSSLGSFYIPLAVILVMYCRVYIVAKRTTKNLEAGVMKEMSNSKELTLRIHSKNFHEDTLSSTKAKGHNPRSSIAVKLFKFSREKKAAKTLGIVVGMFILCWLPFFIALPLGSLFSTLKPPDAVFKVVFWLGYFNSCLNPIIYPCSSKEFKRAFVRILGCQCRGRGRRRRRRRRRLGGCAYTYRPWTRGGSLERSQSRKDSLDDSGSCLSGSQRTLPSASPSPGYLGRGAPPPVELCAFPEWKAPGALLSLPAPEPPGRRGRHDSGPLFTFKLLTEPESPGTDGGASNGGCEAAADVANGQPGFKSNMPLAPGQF
Value kind: Ki (nM)
State just the number; it will be interpreted in nM.

Fill blank: measured Ki of the molecule O=c1n(CCCN2CCN(c3cccc(Cl)c3)CC2)nc2ccccn12 is ____.
15
